assayDetails: Cytotoxicity against human K562/A02 cells assessed as cell viability at 5.0 uM after 48 hrs by MTT assay (reference value: >99%)
Assay type: cell-based
conditionNotes: read-out: Activity
measuredParameter: viability at 48 h, 5 µM (%)
Numbers only, in %.

Just so you know, measured viability at 48 h, 5 µM for COc1ccc(CCN(C)CCCC(C#N)(c2ccc(OC)c(OC)c2)C(C)C)cc1OC (stereo unspecified) came out at 88.3

----------
assayDetails: in vitro
conditionNotes: human, K562 cells
measuredParameter: viability at 48 h, 5 µM

Just so you know, measured viability at 48 h, 5 µM for COc1ccc(CCN(C)CCCC(C#N)(c2ccc(OC)c(OC)c2)C(C)C)cc1OC (stereo unspecified) came out at > 99%

----------
assayDetails: Cytotoxicity against human K562 cells assessed as cell viability at 1.0 uM after 48 hrs by MTT assay (reference value: >99%)
Type: cell-based
conditionNotes: read-out: Activity
measuredParameter: viability at 48 h, 1 µM (%)
Answers are plain numbers, in %.

Answered examples (3):
compoundString: COc1cc2c(cc1OC)CN(CCc1ccc(Nc3nc(-c4ccccc4)nc4ccccc34)cc1)CC2
viability at 48 h, 1 µM (%): 98.7
--
compoundString: COc1cc2c(cc1OC)CN(CCc1ccc(Nc3nc(-c4ccncc4)nc4ccccc34)cc1)CC2
viability at 48 h, 1 µM (%): 96.5
--
compoundString: COc1cc2c(cc1OC)CN(CCc1ccc(Nc3nc(-c4ccc5c(c4)OCO5)nc4ccccc34)cc1)CC2
viability at 48 h, 1 µM (%): 91.4

Please go through the list and note viability at 48 h, 1 µM for each compound.
1. COc1cc2c(cc1OC)CN(CCc1ccc(Nc3nc(-c4ccc(C)cc4)nc4ccccc34)cc1)CC2
2. COc1ccc(C(=O)Nc2ccccc2C(=O)Nc2ccc(CCN3CCc4cc(OC)c(OC)cc4C3)cc2)cc1OC
3. COc1cc2c(cc1OC)CN(CCc1ccc(Nc3nc(-c4cccc(C)c4)nc4ccccc34)cc1)CC2
4. COc1ccc(-c2nc(Nc3ccc(CCN4CCc5cc(OC)c(OC)cc5C4)cc3)c3ccccc3n2)cc1OC

[93.4, 97.5, 92.9, 95.1]

Just so you know, measured viability at 48 h, 1 µM for COc1cc2c(cc1OC)CN(CCc1ccc(Nc3nc(-c4ccc([N+](=O)[O-])cc4)nc4ccccc34)cc1)CC2 came out at 94.7

----------
assayDetails: Plasma clearance in Sprague-Dawley rat at 10 mg/kg, po measured after 24 hrs by LC-MS/MS analysis
Type: ADME, organism-based
measuredParameter: CL/F (mL/min/kg)
One number for each entry, in mL/min/kg.

Just so you know, measured CL/F for COc1cc2c(cc1OC)CN(CCc1ccc(Nc3nc(-c4ccncc4)nc4ccccc34)cc1)CC2 came out at 49.9

----------
assayDetails: Elimination half life in Sprague-Dawley rat at 10 mg/kg, iv by LC-MS/MS analysis
Format: ADME, organism-based
conditionNotes: in vivo, read-out: beta t1/2 (converted)
measuredParameter: half-life
# do not omit the unit; it follows the number

Just so you know, measured half-life for COc1cccc2c1C(=O)c1c(O)c3c(c(O)c1C2=O)C[C@@](O)(C(=O)CO)C[C@@H]3O[C@H]1C[C@H](N)[C@H](O)[C@H](C)O1 came out at 1.6 h

Where these numbers come from: ChEMBL document CHEMBL4049421
